Tested on: hypersensitive teeth
EXPERIMENT DESCRIPTION: Randomized controlled study of dentine hypersensitivity: visual analogue scale (VAS) score with hot applicator and ice cube, before and after first mouthwash application
Type: in vivo, patients
EXPERIMENTAL CONDITIONS: VAS 0-10; group mean of 6 subjects; after first application of mouthwash; applicator heated to 90C
Measured Hot After 1 use Mean by item

Record Nc1ncnc2c1ncn2[C@@H]1O[C@H](CO)[C@@H](O)[C@H]1O , field Hot After 1 use Mean: 4

Record O=[N+]([O-])[O-].[K+] [Potassium nitrate] , field Hot After 1 use Mean: 6

Record O=c1c(O)c(-c2ccccc2)oc2cc(O)cc(O)c12 , field Hot After 1 use Mean: 4,6

Record CCCCCCCC/C=C\CCCCCCCC(=O)O , field Hot After 1 use Mean: 4,3
